Values from PubChem BioAssay (NCATS)

Test: NFAT Signaling Pathway (AID 444);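 further: carbachol stimulus at about its EC50 of 1 µM final; on the % scale 0 is the no-effect control and ±100 the full control effect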
Conditions: Jurkat NFAT-bla M1, carbachol, beta-lactamase ratio, 5 h; at 17.2 µM (top of the series) unless noted
Experimental: NCGC Assay Overview: The nuclear factor of activated T cells (NFAT) family of transcription factors has been found primarily in most immune system cells and some other non-immune cells. NFAT plays the immunomodulatory role, primarily in T-cell activation and differentiation. […] NCGC Assay Protocol Summary: The cells were prepared in RPMI 1640 medium containing 0.1% dialyzed FBS and 25 mM HEPES at 1.6 x 10^6cell/ml. […] The %Activity was determined from the ratio of 460nm/530nm. […]
Records with an inconclusive call do not appear. Calls of active or inactive are those of the source. The call rests on the fitted dose curve; in most records, active means well fitted curve in either direction with a large enough effect (not every such curve was filed as active); inconclusive means small, poorly fitted or top-dose-only effect, or another doubt; inactive means flat fitted curve, though single readings scatter.

{"columns": ["compound", "activity change, negative = inhibition"],
 "data": [
  ["Cc1c2c([n+]3n1CCC3)CC(C)(C)CC2=O", "-9.27% (inactive)"],
  ["COc1ccc(NC(=O)c2c(C)cc(=O)oc2C)c(OC)c1", "16.2% (inactive)"],
  ["CO[C@H]1C[C@@H]2CC[C@@H](C)[C@@](O)(O2)C(=O)C(=O)N2CCCC[C@H]2C(=O)O[C@H]([C@H](C)C[C@@H]2CC[C@@H](O)[C@H](OC)C2)CC(=O)[C@H](C)C=C(C)[C@@H](O)[C@@H](OC)C(=O)[C@H](C)C[C@H](C)C=CC=CC=C1C", "24.7% (inactive)"],
  ["O=C1c2ccccc2C(=O)N1CC1c2ccccc2CCN1C(=O)N1CCOCC1 (stereo not given)", "-0.0702% (inactive)"],
  ["C/C(=N\\O)c1c(C)c2ccccc2n1C", "-14.1% (inactive)"],
  ["CCCCCC[C@@H]([C@H](C)O)n1cnc2c(N)ncnc21", "-4.53% [at 38 µM] (inactive)"],
  ["COc1cc(C)nc(Nc2nc(C)c(C(C)=O)s2)n1", "-2.73% (inactive)"],
  ["CC1(C)Cc2c(sc3nc4n(c(=N)c23)CCC4)CO1", "-4.64% (inactive)"],
  ["COc1ccc(-c2cc3nc4n(c(=O)c3s2)CCOC4)cc1", "-10.1% (inactive)"],
  ["CCOC(=O)C(CC(=O)O)N1CCCCC1 (stereo not given)", "10.9% (inactive)"],
  ["CC(C)OC(=O)CCNc1n[nH]c(=O)[nH]c1=O", "0.573% (inactive)"],
  ["COc1ccc(C(=O)N2CCCC(c3ccccc3)C2)cc1 (stereo not given)", "18.5% (inactive)"],
  ["CCC(c1c(C)n(C)n(-c2ccccc2)c1=O)c1c(C)n(C)n(-c2ccccc2)c1=O", "9.43% (inactive)"],
  ["CC(=O)/C(C#N)=C1\\NC(=O)C(Cc2ccccc2)S1 (stereo not given)", "-11.2% (inactive)"],
  ["CCCc1nnc(SCc2ccc(OCC)cc2)n1N", "7.42% (inactive)"],
  ["NS(=O)(=O)c1ccc(-c2ccc(C=NC3CCS(=O)(=O)C3)o2)cc1 (stereo not given)", "-3.68% (inactive)"],
  ["CC1(C)CC(=O)C2=C(C1)OC(N)=C(C#N)C21C(=O)N(CN2CCOCC2)c2ccccc21 (stereo not given)", "1.95% (inactive)"],
  ["Cc1cc(C)n(C(=O)CNC(=O)C2COc3ccccc3O2)n1 (stereo not given)", "-7.83% (inactive)"],
  ["CCc1c(C(=O)O)[nH]c2ccc(Br)cc12", "-22% (inactive)"],
  ["COCCCn1c2nc3ccccc3nc2c2c(=O)n(CC3CCCO3)cnc21 (stereo not given)", "-12.4% (inactive)"],
  ["CC(=O)Nc1cnc2ccccc2n1", "-13.5% (inactive)"],
  ["CC(C)c1cc(NCCN2CCOCC2)n2c(nc3ccccc32)c1C#N", "6.15% (inactive)"],
  ["Cc1ccc(C(=O)/C=C/Nc2cccc(O)c2)cc1", "1.57% (inactive)"],
  ["COc1cccc(Cn2c(NCC(C)C)nc3c2c(=O)n(C)c(=O)n3C)c1", "-1.36% (inactive)"],
  ["Cc1ccc(S(=O)(=O)NCC(=O)OCN2C(=O)c3ccccc3C2=O)cc1", "-25.1% (inactive)"],
  ["CCOc1ccccc1C(=O)NCCCCCC(=O)O", "2.57% (inactive)"],
  ["C=C(C)Cn1c(-c2ccc(OC)cc2)nc2ccccc21", "3.93% (inactive)"],
  ["Cc1cc(C)c(-n2c(O)c(C=NCCN3CCOCC3)c(=O)[nH]c2=O)c(C)c1", "7.98% (inactive)"],
  ["Nc1ccn([C@@H]2O[C@@H](CO)[C@@H](O)[C@H]2O)c(=O)n1", "-7.43% [at 38 µM] (inactive)"],
  ["CCOC(=O)CNS(=O)(=O)c1cc(-c2nn(C)c(=O)c3ccccc23)ccc1C", "-12.6% (inactive)"],
  ["O=C(c1cc(N2CCCCC2)nc2ccccc12)N1CCOCC1", "-13.8% (inactive)"],
  ["CC(C)CCOc1ccc(Cl)cc1CN1CCOCC1", "5.23% (inactive)"],
  ["COc1cc(C(=O)Nc2ccccn2)cc(OC)c1OC", "12% (inactive)"],
  ["CN(C)CCCN1C(=O)C(O)=C(C(=O)c2cc3ccccc3o2)C1c1ccccc1 (stereo not given)", "-4.4% (inactive)"],
  ["CC(C)Cc1nc2n[nH]c(N)c2c2c1CCC2", "28.5% (inactive)"],
  ["CC(C)(C)NC(=O)CSc1nsc(SCC(=O)NC(C)(C)C)c1C#N", "-10.2% (inactive)"],
  ["CN1CCN(c2ncnc3c2[nH]c2ccc(F)cc23)CC1", "-5.03% (inactive)"],
  ["CCOC(=O)C1CCN(c2ncnc3c2cnn3-c2ccc(Cl)cc2)CC1", "-16.1% (inactive)"],
  ["Cc1cccc(N2CC(=O)N(c3cccc(C)c3)CC2=O)c1", "5.99% (inactive)"],
  ["CCOC(=O)c1ccc(NC(=O)Cn2nnc3ccccc32)cc1", "12.9% (inactive)"],
  ["COc1ccc(Cn2c(O)cc(=O)[nH]c2=O)cc1", "-0.64% (inactive)"],
  ["CCCCC(=O)c1c(C)cc(C)[nH]c1=O", "4.24% (inactive)"],
  ["O=C(C1=C(O)C(=O)N(c2ncccn2)C1c1cccc(Cl)c1)c1ccco1 (stereo not given)", "22.6% (inactive)"],
  ["COc1ccc(C(=O)NCC(=O)n2nc(C)cc2C)cc1OC", "-1.54% (inactive)"],
  ["O=C1C2ON(c3ccccc3)C(c3cccnc3)C2C(=O)N1c1ccccc1 (stereo not given)", "-5.72% (inactive)"]
]}
